Hey, just so you know, these numbers are from PubChem BioAssay (NCI).

system: DMS 273 small cell lung; assay: NCI tumour cell line growth inhibition, 48 h
Overview of reported TGI across a group of compounds:

Compound | TGI
C[C@H]1CC[P+](Cc2ccccc2)(c2ccccc2)C1 (stereo partly drawn) | > 100 µM
O=NN1C(c2ccccc2)CNC(=O)CC1c1ccccc1 (stereo not drawn) | > 100 µM

Shifting focus to the compound that follows.
IN: TGI lookup needed for NC(=O)c1ccc2c(c1)-c1nc-2nc2[n-]c(nc3nc(nc4[n-]c(n1)c1ccc(C(N)=O)cc41)-c1ccc(C(N)=O)cc1-3)c1ccc(C(N)=O)cc21.[Co+2] , thanks.
OUT: > 50 µM

---

test system: SK-MEL-28 melanoma; assay: NCI tumour cell line growth inhibition, 48 h
Overview of reported TGI across a group of compounds:

Example entries begin here.
Compound | Tested On | TGI
CCOCC1(COCC)CCC(c2[nH]ncc2CN(C)CCNC)CC1 | SK-MEL-28 melanoma | > 100 µM
O=C1CC(c2c[nH]c3ccc(F)cc23)C(=O)N1 (stereo unspecified) | SK-MEL-28 melanoma | > 100 µM
O=C1N=C2SC=C(NC(=S)Nc3ccccc3)N2NC12c1ccccc1-c1ccccc12 | SK-MEL-28 melanoma | > 10 µM
CSC1=NC(=Nc2c(C)cccc2C)C2(CCC(C(C)(C)C)CC2)N1c1ccc(Cl)cc1 (stereo unspecified) | SK-MEL-28 melanoma | > 100 µM

IN: TGI lookup needed for CC(C)C1CNC(=O)C2(C=NC(C(C)C)CNC(=O)C3(C=N1)CCCO3)CCCO2 (stereo unspecified) , thanks.
OUT: > 10 µM

IN: TGI lookup needed for CC(C)(C)N=CN1C=Cc2nc3ccccc3cc2C1 , thanks.
OUT: > 100 µM

---

tested on: HCC-2998 colon; assay: NCI tumour cell line growth inhibition, 48 h; in the data active = GI50 below about 0.43 µM; inactive = the rest
Classes to choose from: 1 = active, 0 = inactive

IN: What was the test verdict on COc1ccc2c(c1)OC(N)=C(C#N)C2c1cc(OC)c(OC)c(OC)c1 (stereo not given) ?
OUT: 1

IN: What was the test verdict on O=C1Nc2ccc(Cl)cc2/C1=C\c1c(-c2ccc(Cl)cc2)nc2sc(C3CC3)nn12 ?
OUT: 0

IN: What was the test verdict on COc1cc[c]([Sn]([c]2ccc(OC)cc2)([c]2ccc(OC)cc2)[c]2ccc(OC)cc2)cc1 ?
OUT: 0

IN: What was the test verdict on Cn1cc(/C=C\[N+](=O)[O-])c2ccccc21 ?
OUT: 0

IN: What was the test verdict on c1cc(N[C@@H]2CCNC2)nc(-c2cnc3ccc(-c4cn[nH]c4)cn23)c1 ?
OUT: 0

---

Overview of reported TGI across a group of compounds:
tested on: RXF-631 renal; assay: NCI tumour cell line growth inhibition, 48 h

Example entries begin here.
Compound String | Quantity Kind | Data Value
O=C1[C@@H]2C(c3ccc(Br)cc3)=NO[C@@H]2C(=O)N1c1ccc(Cc2ccc(N3C(=O)[C@H]4C(c5ccc(Br)cc5)=NO[C@H]4C3=O)cc2)cc1 | TGI | > 40 µM
Cc1ccc(NC(=O)CCCC(=O)CC(=O)c2ccc(Br)cc2)cc1 | TGI | > 100 µM

Shifting focus to the compound that follows.
IN: TGI lookup needed for CC(C)c1cccc(C(C)C)c1NC(=O)C(=O)Cc1nc2ccc([N+](=O)[O-])cc2[nH]c1=O , thanks.
OUT: > 100 µM

---

Overview of reported TGI across a group of molecules:
system: SK-MEL-2 melanoma; test: NCI tumour cell line growth inhibition, 48 h

Example entries begin here.
Molecule | Tested On | TGI
O=c1[nH]/c(=C/c2ccc3c(c2)OCO3)c(=O)[nH]/c1=C/c1ccc2c(c1)OCO2 | SK-MEL-2 melanoma | > 10 µM
O=C(O/N=C1\CCCC\C1=C/c1ccccc1)c1ccc([N+](=O)[O-])cc1 | SK-MEL-2 melanoma | > 100 µM
CC1=CC2C(C=C1)S(=O)(=O)N1CC21c1ccccc1 (centres undefined) | SK-MEL-2 melanoma | > 100 µM

Shifting focus to the molecule that follows.
IN: TGI lookup needed for C[N+](C)(CCCCCC[N+](C)(C)CCCN1C(=O)c2cccc3cccc(c23)C1=O)CCCN1C(=O)c2cccc3cccc(c23)C1=O , thanks.
OUT: > 100 µM

---

tested on: K-562 leukemia; assay: NCI tumour cell line growth inhibition, 48 h
Overview of reported TGI across a group of compounds:

Compound String | Data Value
CNC(=O)c1n[nH]n(C2CCCCC2)c1=S | > 100 µM

IN: TGI lookup needed for Nc1nc(Nc2ccc(Cl)c(Cl)c2)nc2nc[nH]c12 , thanks.
OUT: 47.4 µM

IN: TGI lookup needed for O=C(CS(=O)(=O)c1nc2ccccc2nc1-c1ccccc1)Nc1ccc(F)cc1 , thanks.
OUT: 16.6 µM

---

tested on: LOX IMVI melanoma; assay: NCI tumour cell line growth inhibition, 48 h; in the data active = GI50 below about 0.43 µM; inactive = the rest
Classes to choose from: active, inactive

Illustrative cases are given below, each with its answer.
Molecule | Tested On | Category Label
COc1ccccc1/C=C(/C)[N+](=O)[O-] | LOX IMVI melanoma | active
CSC1=NC(=Nc2c(C)cccc2C)C2(CCC(C(C)(C)C)CC2)N1c1ccc(Cl)cc1 (stereo not given) | LOX IMVI melanoma | inactive

IN: What was the test verdict on CC(C)=CCc1cc2c(cc1O)C1=C(C(=O)C3=C(C1=O)S(=O)(=O)CCN3)C(C=C(C)C)O2 (stereo not given) ?
OUT: inactive

IN: What was the test verdict on COC(=O)NC1C(C)OC(OC2C/C=C(/C)C3C=CC4C(OC5CC(OC6CCC(OC7CC(O)C(OC8CCC(O)C(C)O8)C(C)O7)C(C)O6)C(OC(C)=O)C(C)O5)C(C)CC(C)C4C3(C)/C(O)=C3/C(=O)OC4(CC(C=O)=CC(O)C4/C=C\2C)C3=O)CC1(C)[N+](=O)[O-] (stereo not given) ?
OUT: active

IN: What was the test verdict on CCN1CCN(c2nc(C)cc(N(CCCNc3ccnc4cc(Cl)ccc34)Cc3ccc4c(c3)OCO4)n2)CC1 ?
OUT: inactive

---

tested on: NCI-H226 lung; assay: NCI tumour cell line growth inhibition, 48 h
Quantity Kind: TGI

Molecule | Tested On | TGI
FC(F)(F)c1ccc(C2ON=C(c3ccccc3)N2C23CC4CC(CC(C4)C2)C3)cc1 (stereo unspecified) | NCI-H226 lung | > 10 µM
CCCn1c2c(c3ccccc3c1=O)C(=O)c1ccccc1-2 | NCI-H226 lung | > 100 µM
CSC1=NC(=Nc2c(C)cccc2C)C2(CCC(C(C)(C)C)CC2)N1c1ccc(Cl)cc1 (stereo unspecified) | NCI-H226 lung | > 100 µM
COC(=O)C1(NC(=O)C(Cc2ccccc2)N(C(=O)OC(C)(C)C)C(=O)OC(C)(C)C)CCCC1 (stereo unspecified) | NCI-H226 lung | > 100 µM
CCCNC(=O)Nc1c([N+](=O)[O-])cc(C(F)(F)F)cc1[N+](=O)[O-] | NCI-H226 lung | > 100 µM

Shifting focus to the molecule that follows.
IN: TGI lookup needed for COC(=O)C(=O)Cc1nc2ccccc2s1 , thanks.
OUT: > 100 µM

---

system: SK-OV-3 ovarian; test: NCI tumour cell line growth inhibition, 48 h; in the data active means GI50 below about 0.43 µM; inactive means the rest
Classes to choose from: active, inactive

Compound | Tested On | Category Label
COc1ccc2c(c1)OC(N)=C(C#N)C2c1cc(OC)c(OC)c(OC)c1 (configuration not stated) | SK-OV-3 ovarian | active
N#CCn1c(=O)c(Oc2ccc(F)cc2F)cc2cnc(NC3CCOCC3)nc21 | SK-OV-3 ovarian | inactive
NC1NC=NC2C1N=CN2C1OC(CO)C2[O][Sn][O]C21 (configuration not stated) | SK-OV-3 ovarian | inactive

Let us examine a further case.
IN: What was the test verdict on O=C1/C(=C/c2ccc(Cl)c(Cl)c2)CN(C(=O)C(Cl)Cl)C/C1=C\c1ccc(Cl)c(Cl)c1 ?
OUT: inactive

---

Overview of reported TGI across a group of compounds:
system: COLO 205 colon; experiment: NCI tumour cell line growth inhibition, 48 h

Example entries begin here.
Compound String | Tested On | Data Value
N#CCn1c(=O)c(Oc2ccc(F)cc2F)cc2cnc(NC3CCOCC3)nc21 | COLO 205 colon | > 25 µM
CC(=O)CCCCn1c(=O)c2c(nc(Br)n2C)n(C)c1=O | COLO 205 colon | > 100 µM

Shifting focus to the compound that follows.
IN: TGI lookup needed for CCOC(=O)Cc1cc(OC)c(OC)cc1/C(Cl)=C(\CO)c1ccc(OC)c(OC)c1 , thanks.
OUT: > 100 µM

---

Overview of reported TGI across a group of compounds:
test system: OVCAR-3 ovarian; assay: NCI tumour cell line growth inhibition, 48 h

Example entries begin here.
Compound String | Quantity Kind | Data Value
Clc1ccc(Cl)c(N=Nc2cc3c4c(c2)CCN4CCC3)c1 | TGI | > 10 µM
CC1=NN(c2nc(N)nc(NS(=O)(=O)c3cc(C)c(Cl)cc3S)n2)C(C)(C)C1 | TGI | > 10 µM

IN: TGI lookup needed for CCN(CC)c1ccc(/C=C/C(=O)c2ccc(Nc3nc(Nc4ccccc4)nc(Nc4ccccc4)n3)cc2)cc1 , thanks.
OUT: 20 µM
